I'd be grateful if you could share measured Inhibition at 100 μM for these entries.
System: Botrytis cinerea (B05.10)
Experiment: Resazurin antifungal assay of 180 alpha-factor peptide variants towards Botrytis (Example 2)
Format: cell-based
Settings: % inhibition of fungal growth, Botrytis conidia, peptide 100 μM, resazurin
Peptide text beside a SMILES is read from it.
Your answer should be a plain number; it is taken to be in %.

Input: Name the recorded Inhibition at 100 μM of the item CSCC[C@H](NC(=O)[C@@H]1CCCN1C(=O)[C@H](CCC(N)=O)NC(=O)CNC(=O)[C@@H]1CCCN1C(=O)[C@H](CCCCN)NC(=O)[C@H](Cc1ccccc1)NC(=O)[C@H](CCCNC(=N)N)NC(=O)[C@H](CC(C)C)NC(=O)[C@H](CC(=O)O)NC(=O)[C@H](Cc1c[nH]cn1)NC(=O)[C@@H](N)CCCCN)C(=O)N[C@@H](Cc1ccc(O)cc1)C(=O)O [compound 29] (H-KHDLRFKPGQPMY-OH; N-terminus and C-terminus assumed) in your answer.
Output: 97.77

Input: Name the recorded Inhibition at 100 μM of the item CC[C@H](C)[C@H](NC(=O)[C@H](CCCCN)NC(=O)[C@H](CC(C)C)NC(=O)[C@H](Cc1c[nH]c2ccccc12)NC(=O)[C@H](Cc1c[nH]cn1)NC(=O)[C@@H](N)Cc1c[nH]c2ccccc12)C(=O)N[C@@H](Cc1c[nH]c2ccccc12)C(=O)N1CCC[C@H]1C(=O)NCC(=O)N[C@@H](CCC(N)=O)C(=O)N1CCC[C@H]1C(=O)N[C@@H](CCSC)C(=O)N[C@@H](Cc1ccc(O)cc1)C(=O)O [compound 99] (H-WHWLKIWPGQPMY-OH; N-terminus and C-terminus assumed) in your answer.
Output: 100

----------
System: Botrytis cinerea (B05.10)
Assay: Resazurin antifungal assay of 180 alpha-factor peptide variants towards Botrytis (Example 2)
Format: cell-based
Conditions: % inhibition of fungal growth, Botrytis conidia, peptide 100 μM, resazurin
Protocol: The antifungal activity of 180 alpha-factor peptide variants towards Botrytis was tested. Experimental design: […] Fungal conidia were harvested by scraping a Botrytis plate flooded with 1 ml water with 0.1% Tween 80 solution. […] The conidia concentration of the resulting solution was counted using a hemocytometer. […] Peptides were tested for activity against Botrytis, using the resazurin assay. […] Fluorescence was measured at 570/620 nm after 4 h of incubation with resazurin. […]
Peptide text beside a SMILES is read from it.
readout.name: Inhibition at 100 μM (%)
Your answer should be a plain number; it is taken to be in %.

Input: Name the recorded Inhibition at 100 μM of the item CSCC[C@H](NC(=O)[C@@H]1CCCN1C(=O)[C@H](CCC(N)=O)NC(=O)CNC(=O)[C@@H](NC(=O)[C@H](CCCNC(=N)N)NC(=O)[C@H](CC(C)C)NC(=O)[C@H](CC(N)=O)NC(=O)[C@@H](NC(=O)[C@H](Cc1c[nH]c2ccccc12)NC(=O)[C@H](CCCCN)NC(=O)[C@@H](N)Cc1c[nH]c2ccccc12)C(C)C)[C@@H](C)O)C(=O)N[C@@H](Cc1ccc(O)cc1)C(=O)O [compound 65] (H-WKWVNLRTGQPMY-OH; N-terminus and C-terminus assumed) in your answer.
Output: 100

----------
I'd be grateful if you could share measured Inhibition at 20 μM for these entries.
Test system: Botrytis cinerea (B05.10)
Experiment: Resazurin antifungal assay of 180 alpha-factor peptide variants towards Botrytis (Example 2)
Format: cell-based
Details: % inhibition of fungal growth, Botrytis conidia, peptide 20 μM, resazurin
Peptide text beside a SMILES is read from it.

Input: Please report Inhibition at 20 μM with Botrytis cinerea (B05.10) for item CSCC[C@H](NC(=O)[C@@H]1CCCN1C(=O)[C@H](CCC(N)=O)NC(=O)CNC(=O)[C@H](CC(N)=O)NC(=O)[C@H](CCCCN)NC(=O)[C@H](CC(C)C)NC(=O)[C@H](CCCCN)NC(=O)[C@H](CC(C)C)NC(=O)[C@H](Cc1c[nH]c2ccccc12)NC(=O)[C@H](CCC(N)=O)NC(=O)[C@@H](N)CCCCN)C(=O)N[C@@H](Cc1ccc(O)cc1)C(=O)O [compound 91] (H-KQWLKLKNGQPMY-OH; N-terminus and C-terminus assumed) .
Output: <90%

Input: Please report Inhibition at 20 μM with Botrytis cinerea (B05.10) for item CSCC[C@H](NC(=O)[C@@H]1CCCN1C(=O)[C@H](CCC(N)=O)NC(=O)CNC(=O)[C@@H]1CCCN1C(=O)[C@H](CCCCN)NC(=O)[C@H](CC(C)C)NC(=O)[C@H](CCCNC(=N)N)NC(=O)[C@H](CC(C)C)NC(=O)[C@H](CC(C)C)NC(=O)[C@H](Cc1c[nH]cn1)NC(=O)[C@@H](N)CCCCN)C(=O)N[C@@H](Cc1ccc(O)cc1)C(=O)O [compound 88] (H-KHLLRLKPGQPMY-OH; N-terminus and C-terminus assumed) .
Output: <90%

Input: Please report Inhibition at 20 μM with Botrytis cinerea (B05.10) for item CSCC[C@H](NC(=O)[C@@H]1CCCN1C(=O)[C@H](CCC(N)=O)NC(=O)CNC(=O)[C@@H](NC(=O)[C@H](CCCNC(=N)N)NC(=O)[C@H](CC(C)C)NC(=O)[C@H](CC(N)=O)NC(=O)[C@@H](NC(=O)[C@H](Cc1c[nH]c2ccccc12)NC(=O)[C@H](CCCCN)NC(=O)[C@@H](N)Cc1c[nH]c2ccccc12)C(C)C)[C@@H](C)O)C(=O)N[C@@H](Cc1ccc(O)cc1)C(=O)O [compound 65] (H-WKWVNLRTGQPMY-OH; N-terminus and C-terminus assumed) .
Output: <90%

Input: Please report Inhibition at 20 μM with Botrytis cinerea (B05.10) for item CSCC[C@H](NC(=O)[C@@H]1CCCN1C(=O)[C@H](CCC(N)=O)NC(=O)CNC(=O)[C@H](CCCNC(=N)N)NC(=O)[C@H](CCCCN)NC(=O)[C@H](CC(C)C)NC(=O)[C@H](CCC(N)=O)NC(=O)[C@H](CC(C)C)NC(=O)[C@@H](NC(=O)[C@H](Cc1c[nH]cn1)NC(=O)[C@@H](N)CCCCN)[C@@H](C)O)C(=O)N[C@@H](Cc1ccc(O)cc1)C(=O)O [compound 93] (H-KHTLQLKRGQPMY-OH; N-terminus and C-terminus assumed) .
Output: <90%

Input: Please report Inhibition at 20 μM with Botrytis cinerea (B05.10) for item CC[C@H](C)[C@H](NC(=O)[C@H](Cc1c[nH]c2ccccc12)NC(=O)[C@H](Cc1c[nH]cn1)NC(=O)[C@@H](N)CCCCN)C(=O)N[C@H](C(=O)N[C@@H](Cc1ccccc1)C(=O)N[C@@H](CCCCN)C(=O)N1CCC[C@H]1C(=O)NCC(=O)N[C@@H](CCC(N)=O)C(=O)N1CCC[C@H]1C(=O)N[C@@H](CCSC)C(=O)N[C@@H](Cc1ccc(O)cc1)C(=O)O)[C@@H](C)O [compound 11] (H-KHWITFKPGQPMY-OH; N-terminus and C-terminus assumed) .
Output: <90%

Input: Please report Inhibition at 20 μM with Botrytis cinerea (B05.10) for item CSCC[C@H](NC(=O)[C@@H]1CCCN1C(=O)[C@H](CCC(N)=O)NC(=O)CNC(=O)[C@@H]1CCCN1C(=O)[C@H](CCCCN)NC(=O)[C@H](Cc1ccccc1)NC(=O)[C@H](CC(N)=O)NC(=O)[C@H](CC(C)C)NC(=O)[C@H](Cc1ccccc1)NC(=O)[C@H](Cc1c[nH]cn1)NC(=O)[C@@H](N)CCCCN)C(=O)N[C@@H](Cc1ccc(O)cc1)C(=O)O [compound 78] (H-KHFLNFKPGQPMY-OH; N-terminus and C-terminus assumed) .
Output: <90%

Input: Please report Inhibition at 20 μM with Botrytis cinerea (B05.10) for item CC[C@H](C)[C@H](NC(=O)[C@H](CCCNC(=N)N)NC(=O)[C@H](CC(C)C)NC(=O)[C@H](Cc1c[nH]c2ccccc12)NC(=O)[C@H](Cc1c[nH]cn1)NC(=O)[C@@H](N)CCCCN)C(=O)N[C@@H](CCCCN)C(=O)N[C@@H](Cc1c[nH]c2ccccc12)C(=O)NCC(=O)N[C@@H](CCC(=O)O)C(=O)N1CCC[C@H]1C(=O)N[C@@H](CCSC)C(=O)N[C@@H](Cc1ccc(O)cc1)C(=O)O [compound 52] (H-KHWLRIKWGEPMY-OH; N-terminus and C-terminus assumed) .
Output: 100%

Input: Please report Inhibition at 20 μM with Botrytis cinerea (B05.10) for item CSCC[C@H](NC(=O)[C@@H]1CCCN1C(=O)[C@H](CCC(N)=O)NC(=O)CNC(=O)[C@@H]1CCCN1C(=O)[C@H](CCCCN)NC(=O)[C@H](Cc1ccccc1)NC(=O)[C@H](CCCCN)NC(=O)[C@H](CC(C)C)NC(=O)[C@H](Cc1ccc(O)cc1)NC(=O)[C@H](Cc1c[nH]cn1)NC(=O)[C@@H](N)CCCCN)C(=O)N[C@@H](Cc1ccc(O)cc1)C(=O)O [compound 72] (H-KHYLKFKPGQPMY-OH; N-terminus and C-terminus assumed) .
Output: 100%

Input: Please report Inhibition at 20 μM with Botrytis cinerea (B05.10) for item CSCC[C@H](NC(=O)[C@@H]1CCCN1C(=O)[C@H](CCC(N)=O)NC(=O)CNC(=O)[C@@H]1CCCN1C(=O)[C@H](CCCCN)NC(=O)[C@H](Cc1ccccc1)NC(=O)[C@H](CCCNC(=N)N)NC(=O)[C@H](CC(C)C)NC(=O)[C@H](Cc1c[nH]c2ccccc12)NC(=O)[C@H](Cc1c[nH]cn1)NC(=O)[C@@H](N)CCCCN)C(=O)N[C@@H](Cc1ccc(O)cc1)C(=O)O [compound 9] (H-KHWLRFKPGQPMY-OH; N-terminus and C-terminus assumed) .
Output: 100%

Source listed as patent US20250382332A1.
